Test system: BV2 microglial cells
protocol-details: cytotoxicity, MTT assay
Format: cell-based, mouse
settings: 40.0 μM, 24 h, BV2 microglial cells, n = 3; in % (unit assumed)
Measured Cell Viability accompanies every entry in the list below.
Lab note: write the figure by itself, no unit.

Example molecules with recorded Cell Viability:
C[C@@H]1CC[C@]2(C(=O)O[C@@H]3O[C@H](CO)[C@@H](O)[C@H](O)[C@H]3O)CC[C@]3(C)C(=CCC4[C@@]5(C)CC[C@H](O[C@@H]6O[C@H](CO)[C@@H](O)[C@H](O)[C@H]6O[C@@H]6O[C@H](CO)[C@@H](O[C@@H]7O[C@H](CO)[C@@H](O)[C@H](O)[C@H]7O)[C@H](O)[C@H]6O)C(C)(C)C5CC[C@]43C)[C@@H]2[C@]1(C)O (stereo partly drawn) [Compound 3, hylonoside II]
88.62
CCCCOC(=O)C1OC(OC2CCC3(C)C(CCC4(C)C3CC=C3C5C(C(=O)OC6OC(CO)C(O)C(O)C6O)(CCC(C)C5(C)O)CCC34C)C2(C)C)C(O)C(O)C1O (stereo not drawn) [Compound 1]
99.62

Ask | Identify measured Cell Viability corresponding to C[C@@H]1C[C@H]2[C@@H]3CCC4=CC(=O)C=C[C@]4(C)[C@@]3(F)[C@@H](O)C[C@]2(C)[C@@]1(O)C(=O)CO [Dexamethasone, reference compound]
Reply | 101.37

Ask | Identify measured Cell Viability corresponding to C=C1CC[C@]2(C(=O)O[C@@H]3O[C@H](CO)[C@@H](O)[C@H](O)[C@H]3O[C@@H]3O[C@@H](C)[C@H](O)[C@@H](O)[C@H]3O)CC[C@]3(C)C(=CC[C@@H]4[C@@]5(C)CC[C@H](O[C@@H]6OC[C@H](O)[C@H](O[C@@H]7O[C@H](CO)[C@@H](O)[C@H](O)[C@H]7O[C@@H]7O[C@H](CO)[C@@H](O)[C@H](O)[C@H]7O)[C@H]6O[C@@H]6O[C@@H](C)[C@H](O)[C@@H](O)[C@H]6O)C(C)(C)[C@@H]5CC[C@]43C)[C@@H]2[C@]1(C)O [Compound 7, ilekudinoside F]
Reply | 101.38

Ask | Identify measured Cell Viability corresponding to C[C@H]1CC[C@]2(C(=O)O[C@@H]3O[C@H](CO)[C@@H](O)[C@H](O)[C@H]3O)CC[C@]3(C)C(=CCC4[C@@]5(C)CC[C@H](O[C@@H]6OC[C@@H](O)[C@H](O)[C@H]6OS(=O)(=O)O)C(C)(C)C5CC[C@]43C)C2[C@]1(C)O (stereo partly drawn) [Compound 5, ilexpublesnin I]
Reply | 99.21

Ask | Identify measured Cell Viability corresponding to C[C@@H]1CC[C@]2(C(=O)O[C@@H]3O[C@H](CO)[C@@H](O)[C@H](O)[C@H]3O)CC[C@]3(C)C(=CCC4[C@@]5(C)CC[C@H](OS(=O)(=O)[O-])[C@](C)(CO)C5CC[C@]43C)[C@@H]2[C@]1(C)O.[Na+] (stereo partly drawn) [Compound 6, ilexoside XXXV]
Reply | 103.26

====

System: BV2 microglial cells
protocol-details: cytotoxicity, MTT assay
Format: cell-based, mouse
settings: 40.0 μM, 24 h, BV2 microglial cells, n = 3; in % (unit assumed)
readout: Cell Viability
Lab note: write the figure by itself, no unit.

CCCCOC(=O)C1OC(OC2CCC3(C)C(CCC4(C)C3CC=C3C5C(C(=O)OC6OC(CO)C(O)C(O)C6O)(CCC(C)C5(C)O)CCC34C)C2(C)C)C(O)C(OS(=O)(=O)O)C1O (centres unmarked)
98.56

In the following, a different molecule is considered.
Ask | Under BV2 microglial cells, report Cell Viability for C[C@H]1CC[C@]2(C(=O)O[C@@H]3O[C@H](CO)[C@@H](O)[C@H](O)[C@H]3O)CC[C@]3(C)C(=CCC4[C@@]5(C)CC[C@H](O[C@@H]6OC[C@H](O)[C@H](OS(=O)(=O)O)[C@H]6O)C(C)(C)C5CC[C@]43C)C2[C@]1(C)O (some centres unmarked)
Reply | 99.57
